- target.system: cPLA2 (Homo sapiens, UniProt P47712)
- Sequence (P47712 whole entry, species assumed): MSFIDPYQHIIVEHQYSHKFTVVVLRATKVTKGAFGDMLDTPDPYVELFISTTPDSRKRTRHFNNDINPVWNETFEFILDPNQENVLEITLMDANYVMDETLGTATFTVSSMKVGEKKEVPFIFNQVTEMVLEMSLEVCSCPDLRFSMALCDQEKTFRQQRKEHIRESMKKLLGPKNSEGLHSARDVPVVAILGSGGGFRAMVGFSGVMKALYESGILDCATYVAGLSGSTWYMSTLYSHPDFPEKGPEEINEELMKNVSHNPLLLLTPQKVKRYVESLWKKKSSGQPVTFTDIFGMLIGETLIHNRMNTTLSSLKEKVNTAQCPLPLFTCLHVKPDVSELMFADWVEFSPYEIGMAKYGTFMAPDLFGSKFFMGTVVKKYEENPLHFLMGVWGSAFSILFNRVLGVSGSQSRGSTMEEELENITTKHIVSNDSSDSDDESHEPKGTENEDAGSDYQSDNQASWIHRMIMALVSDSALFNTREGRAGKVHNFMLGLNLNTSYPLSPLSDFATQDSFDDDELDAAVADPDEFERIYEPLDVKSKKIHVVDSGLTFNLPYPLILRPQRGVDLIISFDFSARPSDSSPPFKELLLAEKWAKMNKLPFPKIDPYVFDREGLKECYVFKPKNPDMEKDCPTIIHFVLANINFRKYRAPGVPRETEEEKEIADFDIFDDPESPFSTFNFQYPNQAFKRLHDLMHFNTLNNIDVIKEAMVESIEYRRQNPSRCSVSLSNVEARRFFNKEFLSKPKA
- protocol.summary: cPLA2 inhibitory activity
- Assay type: biochemical
- stated.conditions: 0.25 h; Table 10; same assay
assay.endpoint: IC60 (nM)

Q. Item under review: Cc1ccc(C(SC2CC(CNC(=O)C=Cc3ccc(C=C4SC(=O)NC4=O)cc3)N(C(=O)c3ccccc3C(=O)c3ccc(F)cc3F)C2)(c2ccccc2)c2ccccc2)cc1 (stereo not drawn) . Reported IC60?
A. 2

(A) O=C(C=Cc1ccc(C=C2SC(=O)NC2=O)cc1)NCC1CC(SC(c2ccccc2)(c2ccccc2)c2ccccc2F)CN1C(=O)c1ccccc1C(=O)c1ccc(F)cc1F (stereo not drawn)
(B) Cc1cccc(C(SC2CC(CNC(=O)c3ccc(C=C4SC(=O)NC4=O)cc3)N(C(=O)c3ccccc3C(=O)c3ccc(F)cc3F)C2)(c2ccccc2)c2cccc(C)c2)c1 (stereo not drawn)
(C) O=C(C=Cc1ccc(C=C2SC(=O)NC2=O)cc1)NCC1CC(SC(c2ccccc2)(c2ccccc2)c2cccs2)CN1C(=O)c1ccccc1C(=O)c1ccc(F)cc1F (stereo not drawn)
Q. Highest IC60 first, then in falling order down to the smallest. Rank the items, then write their labels in that order.
A. C, B, A
(C: 2.9 nM, B: 1.4 nM, A: 0.52 nM)
